# Target system: human PPARα (Homo sapiens, UniProt Q07869)
# Sequence (Q07869 167-468): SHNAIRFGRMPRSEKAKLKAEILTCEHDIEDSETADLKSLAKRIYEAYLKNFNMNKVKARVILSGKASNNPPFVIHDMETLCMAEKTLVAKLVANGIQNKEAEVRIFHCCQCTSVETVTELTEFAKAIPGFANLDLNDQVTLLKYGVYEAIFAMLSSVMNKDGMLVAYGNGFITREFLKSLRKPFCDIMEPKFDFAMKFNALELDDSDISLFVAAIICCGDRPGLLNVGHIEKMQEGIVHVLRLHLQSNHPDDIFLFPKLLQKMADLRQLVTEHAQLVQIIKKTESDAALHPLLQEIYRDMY
# Experiment description: PPARα reporter cell line assay (stably transfected HEK cells, GR-GAL4-PPARα fusion protein, firefly luciferase reporter)
# Condition summary: agonist activity in HEK PPARα reporter cell line; 24 h incubation; luciferase luminescence
Attribute measured: pEC50
Quick note: pEC50 values are minus log10 of concentrations in mol/L.

Challenge: Quick one: pEC50 for COc1ccc(-c2nc(CO[C@H]3CCC[C@@H](OCc4cccc(C)c4C(=O)O)C3)c(C)o2)cc1 [LXIV] ?
Response given: 9.89

Challenge: Any idea what its pEC50 is? The molecule is Cc1cccc(CC[C@@H]2CCC[C@H](OCc3coc(-c4ccc(F)cc4)n3)C2)c1C(=O)O (racemic) [XXVIII]
Response given: 9.17

Challenge: Tell me the measured pEC50 of Cc1cccc(CO[C@@H]2CCC[C@H](COCc3coc(-c4ccc(F)cc4)n3)C2)c1C(=O)O (racemic) [Example XXIV] , please.
Response given: 9.05

Challenge: Reported pEC50 for Cc1ccc(-c2nc(CO[C@@H]3CCC[C@H](OCc4cccc(C)c4C(=O)O)C3)co2)cc1 (stereo in doubt) [VII] : what is it?
Response given: 8.40

Challenge: Using the record for Cc1cccc(CO[C@@H]2CCC[C@H](OCc3nc(-c4cccc(F)c4)oc3C)C2)c1C(=O)O [XLVIII] , report its pEC50.
Response given: 9.60

Challenge: Reported pEC50 for Cc1ccc(-c2nc(CO[C@H]3CCC[C@@H](OCc4cccc(C)c4C(=O)O)C3)c(C)o2)cc1 [LXII] : what is it?
Response given: 10.10

Challenge: Bench note: what pEC50 did Cc1cccc(CO[C@@H]2CCC[C@H](OCc3nc(-c4ccc(OC(F)(F)F)cc4)oc3C)C2)c1C(=O)O [LXX] show?
Response given: 9.55

Challenge: Would you kindly share the measured pEC50 for Cc1cccc(CO[C@@H]2CCC[C@H](OCc3nc(-c4cccc(Cl)c4)oc3C)C2)c1C(=O)O [LI] ?
Response given: 9.51
